Reference source: patent US9765109B2

tested on: natural phosphodiester RNA strand; experiment: Thermal denaturation (Tm) of duplexes with complementary RNA; type: binding; conditions: duplex; 150 mM NaCl, 10 mM sodium phosphate buffer (first number)
Quick reference for Tm, RNA among some substances
measurement_kind: Tm, RNA (°C)

| substance | system_name | measured_number |
| --- | --- | --- |
| a(Up^fUp^fUp^fUp^fUp^fUp^fUp^fUp^fUp^fT) [SEQ ID NO:5] | natural phosphodiester RNA strand | 27.5 |
| d(UpUpUpUpUpUpUpUpUpT) (UUUUUUUUUT; contains 2 prime-deoxy nucleosides; test compounds) [SEQ ID NO:3, 2′-deoxy phosphodiester oligonucleotide] | natural phosphodiester RNA strand | 17.9 |
| d(UnUnUnUnUnUnUnUnUnT) (UUUUUUUUUT; N3′→P5′ phosphoramidate; contains 2 prime-deoxy nucleosides; test compounds) [SEQ ID NO:6, 2′-deoxy N3′→P5′ phosphoramidate oligonucleotide] | natural phosphodiester RNA strand | 38.1 |
| r(Up^fUp^fUp^fUp^fUp^fUp^fUp^fUp^fUp^fT) (UUUUUUUUUT; 2′-ribo-fluoro; contains 2 prime-ribo-fluoronucleosides; test compounds) [SEQ ID NO:4, 2′-ribo-fluoro phosphodiester decanucleotide] | natural phosphodiester RNA strand | 32.9 |
| dT-r(Un^fUn^fUn^fUn^fUn^fUn^fUn^fUn^f Un^f) (TUUUUUUUUU; 2′-ribo-fluoro phosphoramidate; 5′ dT; contains 2 prime-deoxy and 2 prime-ribo- fluoronucleotides; test compounds) [SEQ ID NO:7, 2′-ribo-fluoro N3′→P5′ phosphoramidate oligonucleotide] | natural phosphodiester RNA strand | 55.5 |

###

tested on: natural phosphodiester ssDNA; experiment: Thermal denaturation (Tm) of duplexes with complementary DNA; format: binding; settings: duplex; same buffer with additional 10 mM magnesium chloride (second number)

| substance | system_name | Tm, DNA |
| --- | --- | --- |
| dT-a(Un^fUn^fUn^fUn^fUn^fUn^fUn^fUn^f Un^f) (TUUUUUUUUU; 2′-arabino-fluoro phosphoramidate; 5′ dT; contains 2 prime-deoxy and 2 prime-arabino- fluoronucleosides; test compounds) [SEQ ID NO:8, 2′-arabino-fluoro N3′→P5′ phosphoramidate decanucleotide] | natural phosphodiester ssDNA | 37.0 °C |
| r(Up^fUp^fUp^fUp^fUp^fUp^fUp^fUp^fUp^fT) (UUUUUUUUUT; 2′-ribo-fluoro; contains 2 prime-ribo-fluoronucleosides; test compounds) [SEQ ID NO:4, 2′-ribo-fluoro phosphodiester decanucleotide] | natural phosphodiester ssDNA | 18.0 °C |
| d(UnUnUnUnUnUnUnUnUnT) (UUUUUUUUUT; N3′→P5′ phosphoramidate; contains 2 prime-deoxy nucleosides; test compounds) [SEQ ID NO:6, 2′-deoxy N3′→P5′ phosphoramidate oligonucleotide] | natural phosphodiester ssDNA | 38.2 °C |
| a(Up^fUp^fUp^fUp^fUp^fUp^fUp^fUp^fUp^fT) [SEQ ID NO:5] | natural phosphodiester ssDNA | 25.0 °C |
| d(UpUpUpUpUpUpUpUpUpT) (UUUUUUUUUT; contains 2 prime-deoxy nucleosides; test compounds) [SEQ ID NO:3, 2′-deoxy phosphodiester oligonucleotide] | natural phosphodiester ssDNA | 24.6 °C |
| dT-r(Un^fUn^fUn^fUn^fUn^fUn^fUn^fUn^f Un^f) (TUUUUUUUUU; 2′-ribo-fluoro phosphoramidate; 5′ dT; contains 2 prime-deoxy and 2 prime-ribo- fluoronucleotides; test compounds) [SEQ ID NO:7, 2′-ribo-fluoro N3′→P5′ phosphoramidate oligonucleotide] | natural phosphodiester ssDNA | 56.3 °C |
